target: partially purified β-lactamase PCI (Staphylococcus aureus, UniProt P00807); construct: partially purified β-lactamases from Escherichia coli (either TEM or RPI), Klebsiella aerogenes (K1) and Staphylococcus aureus (PCI); endogenous in cells; host or cells: Staphylococcus aureus (PCI), enzyme partially purified from the producing bacterium; assay: β-Lactamase inhibition (hydrolysis of ampicillin); assay type: biochemical; conditions: ampicillin sodium 500 µg/ml, 37°C, pH7, read-out: μg/ml of compound giving 50% inhibition of hydrolysis of ampicillin (converted)
Sequence (P00807 25-281): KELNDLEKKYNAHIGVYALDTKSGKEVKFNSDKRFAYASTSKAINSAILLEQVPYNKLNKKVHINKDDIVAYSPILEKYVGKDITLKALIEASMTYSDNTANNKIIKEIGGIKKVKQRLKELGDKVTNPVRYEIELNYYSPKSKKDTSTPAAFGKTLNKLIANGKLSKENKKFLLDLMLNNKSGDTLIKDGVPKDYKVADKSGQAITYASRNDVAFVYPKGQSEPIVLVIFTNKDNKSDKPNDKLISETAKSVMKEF
outcome.measure: IC50 (µM)
Numbers only, in µM.

structure.smiles.string: CCOC(=O)c1nnn(C/C=C2\O[C@@H]3CC(=O)N3[C@H]2C(=O)O)c1C(=O)OCC
outcome.measure: IC50
endpoint.value: 5.33

structure.smiles.string: CC(=O)c1cn(C/C=C2\O[C@@H]3CC(=O)N3[C@H]2C(=O)O)nn1
outcome.measure: IC50
endpoint.value: 0.616

structure.smiles.string: N#Cc1cn(C/C=C2\O[C@@H]3CC(=O)N3[C@H]2C(=O)O)nn1
outcome.measure: IC50
endpoint.value: 2.54

Kindly review the next compound as well.
Prompt: Would you kindly share the measured IC50 for O=C(O)c1cn(C/C=C2\O[C@@H]3CC(=O)N3[C@H]2C(=O)O)nn1 ?
Response: 9.86

* * *

test system: E. cloacae 1051E; assay: Minimum Inhibitory Concentration (MIC), agar dilution; format: cell-based; conditions: 18 hours at 37°C
outcome.measure: MIC (agar dilution) of compound (µg/mL)
Numbers only, in µg/mL.

Past entries and their recorded results:
structure.smiles.string: CC(=O)c1cn(C/C=C2\O[C@@H]3CC(=O)N3[C@H]2C(=O)O)nn1
unit.abbrev: µg/mL
MIC (agar dilution) of compound: 8
//
structure.smiles.string: O=C(O)[C@H]1/C(=C/Cn2ccnn2)O[C@@H]2CC(=O)N21
unit.abbrev: µg/mL
MIC (agar dilution) of compound: 8
//
structure.smiles.string: N#Cc1cn(C/C=C2\O[C@@H]3CC(=O)N3[C@H]2C(=O)O)nn1
unit.abbrev: µg/mL
MIC (agar dilution) of compound: 4

Kindly review the next compound as well.
Prompt: Form field - read-out: MIC (agar dilution) of compound; system: E. cloacae 1051E; submitted item: CNC(=O)c1cn(C/C=C2\O[C@@H]3CC(=O)N3[C@H]2C(=O)O)nn1
Response: 16

* * *

Task for the reader: assign each of the following molecules its reported IC50.
target: partially purified β-lactamase TEM (Escherichia coli); construct: partially purified β-lactamases from Escherichia coli (either TEM or RPI); endogenous in cells; host or cells: Escherichia coli carrying the TEM plasmid, enzyme partially purified from the bacterium; experiment: β-Lactamase inhibition (hydrolysis of ampicillin); assay type: biochemical; details: ampicillin sodium 500 µg/ml, 37°C, pH7, read-out: μg/ml of compound giving 50% inhibition of hydrolysis of ampicillin (converted)
Sequence (P62593 24-286 limits assumed): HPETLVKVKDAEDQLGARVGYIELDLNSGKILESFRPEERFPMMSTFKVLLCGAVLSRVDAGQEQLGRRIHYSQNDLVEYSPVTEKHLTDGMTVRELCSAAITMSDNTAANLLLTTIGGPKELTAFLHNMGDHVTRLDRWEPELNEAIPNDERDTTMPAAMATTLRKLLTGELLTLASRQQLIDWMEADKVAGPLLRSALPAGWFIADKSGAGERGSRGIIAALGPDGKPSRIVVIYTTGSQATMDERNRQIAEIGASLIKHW
Give bare numbers, in nM.

For the 4 molecules below, give their IC50 values.
1. N#Cc1cn(C/C=C2\O[C@@H]3CC(=O)N3[C@H]2C(=O)O)nn1 [Example 17]
2. CCOC(=O)c1nnn(C/C=C2\O[C@@H]3CC(=O)N3[C@H]2C(=O)O)c1C(=O)OCC [Example 2]
3. CC(=O)c1cnnn1C/C=C1\O[C@@H]2CC(=O)N2[C@H]1C(=O)O [Example 10]
4. O=C(O)c1cn(C/C=C2\O[C@@H]3CC(=O)N3[C@H]2C(=O)O)nn1 [Example 8]

Response:
1. 363
2. 761
3. 1980
4. 374

Prompt: Would you kindly share the measured IC50 for NC(=O)c1cn(C/C=C2\O[C@@H]3CC(=O)N3[C@H]2C(=O)O)nn1 [Example 12] ?
Response: 426
